These entries and their values trace back to patent US20200223906A1.

molecular target: T1, RSV F subtype A, furin-cleaved ectodomain stabilized in the prefusion conformation (DS-Cav1) (Respiratory syncytial virus subtype A, UniProt P03420 26-524); test: BLI, IgG on AHQ sensor, 100 nM antigen
T1 construct: extracellular domain; Trimeric soluble antigen; also called Prefusion subtype A
MEASUREMENT NAME: Kd
Don't forget the unit after the number, please.

ADI-18889 (antibody, V domains shown, full-length IgG from yeast; also called Antibody Number 244; Ab # 244) VH: QVQLQQWGAGLWKPSQTLSLTCAVHGGSLSGYSWSWIRQSPGRGLEWIGEVNRRGTTNYNPSLKGRVSISWDTSKNQVSLSLRSVTAADTATYYCAGTNVGFVNTHNDYYFGMDVWGQGTTVTVSS VL: DIVMTQSPSSLSASVGDRVTITCRASQSISNYVNWYQKKTGQVPKLLIYGASNLESGVPSRFSGGGSGTDFTLTISSLQPEDFATYYCQQSYSVPLTFGGGTKVEIK ... 0.554 nM

Would you kindly look at the next entry?
# Kd of ADI-18947 (antibody, V domains shown, full-length IgG from yeast) VH: QVQLVQSGGGVVQSGRSLRLSCAASGFTFSDNGMHWVRQAPGKGLEWVAGIFHDGSNKQYAESVKGRFIISRDNSKNTLYLQMNSLRAEDTALYFCARAPYDIWSGYCLDYWGQGTLVTVSS VL: DIRMTQSPATLSLSPGESATLSCRASQSVINNLAWYQQRPGQAPRLLIYGASTRATGIPARFSGSGSETEFTLTISSLQSEDFAVYHCQQYSIWPQTFGQGTKLEIK = 2.45 nM
